measuredTarget: T1, cJun bZIP (human, UniProt P05412 252-308, limits assumed)
T1 construct: Purified from a His-SUMO fusion with the tag cleaved off; also called c-Jun bZIP domain; 60 amino acid c-Jun bZIP construct
T1 chain: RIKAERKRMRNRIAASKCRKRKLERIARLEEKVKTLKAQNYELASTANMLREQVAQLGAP
assayInfo: ITC (PEAQ-ITC), peptide injected into cJun, one site model; Table 7 ITC, run at a lower temperature than the earlier 1/cJun ITC measurement
readoutName: Kd (pM)
Hi! Could you send only the number? It should be in pM, unit omitted.

Query: Form field: reported Kd of HingeW (Recombinant, capped (MAS at the N-terminus, GAP at the C-terminus) and C-terminally 6xHis-tagged, 69 amino acids; also called peptide 1) peptide: MASLEQRAEELARENEELEKEAEELVVEEDVLEEEIEQLEERNYALRKEIEDLQKQLEKLGAPHHHHHH
Reply: 210
